Would you kindly list pIC50 for each of these molecules?
Target: BRD4(49-170) bromodomain (Homo sapiens (Human))
Experiment: BRD4 AlphaScreen Assay
Details: binding to biotin-H4(1-21) Ac-K5/8/12/16
Bear in mind: pIC50 is minus log10 of a mol/L concentration; give just that figure.

Using the record for CN1Cc2c(-c3cccc4nc(-c5cnn(C)c5)c(C(F)F)cc34)nc(C3CC3)n2CC1=O [Example 108] , report its pIC50.
4.74

Using the record for Cc1nn(C)cc1-c1cc2ccc(F)c(-c3nc(C4CCOCC4)n4c3CN(C)C(=O)C4C)c2cn1 (single isomer, unassigned) [Example 91a] , report its pIC50.
4.60

Using the record for CC1C(=O)N(C)Cc2c(-c3cccc4nc(-c5noc(=O)[nH]5)c(C(F)F)cc34)nc(C3CC3)n21 (single isomer, unassigned) [Example 45b] , report its pIC50.
5.27

Using the record for Cn1cc(-c2cc3cccc(-c4nc(C5CC5)n5c4CN(CCF)C(=O)C5)c3cn2)cn1 [Example 7] , report its pIC50.
5.30

====

Would you kindly list pIC50 for each of these molecules?
Target: GST-CBP(1081-1197) bromodomain (Homo sapiens (Human), UniProt Q92793)
Sequence (Q92793 1081-1197): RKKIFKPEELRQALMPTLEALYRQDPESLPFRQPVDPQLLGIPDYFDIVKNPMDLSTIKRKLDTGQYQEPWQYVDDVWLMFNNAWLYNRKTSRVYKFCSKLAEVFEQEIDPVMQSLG
Experiment: CBP AlphaScreen Assay
Conditions: binding to biotin-H4(1-21) Ac-K5/8/12/16
Experimental: Specific binding of the CBP or BRD4 bromodomain to the acetylated peptide derived from the H4 histone substrate (tetra acetylated H4(1-21) Ac-K5/8/12/16) was measured in absence or presence of inhibitors. The GST tagged bromodomains of CBP (1081-1197) and BRD4 (49-170) were obtained from BPS Bioscience and binding to the biotinylated H4(1-21) Ac-K5/8/12/16 (AnaSpec. 64989) was assessed via AlphaScreen technology (Perkin Elmer). […]
Bear in mind: pIC50 is minus log10 of a mol/L concentration; give just that figure.

Using the record for CC1C(=O)N(C)Cc2c(-c3cccc4cc(-c5ccn(C)n5)ncc34)nc(C3CCOCC3)n21 (stereo not shown) [Example 86] , report its pIC50.
9.00

Using the record for Cc1ncc(-c2cc3cccc(-c4nc(C5CCOCC5)n5c4CN(C)C(=O)C5C)c3cn2)s1 (single isomer, unassigned) [Example 31a] , report its pIC50.
7.42

Using the record for Cc1cnn(-c2cc3cccc(-c4nc(C5CC5)n5c4CN(C)C(=O)C5C)c3cn2)c1 (stereo not shown) , report its pIC50.
8.52

Using the record for CC1C(=O)N(C)Cc2c(-c3cccc4nc(-c5cnn(C)c5)c(C(F)F)cc34)nc(C3CCN(S(C)(=O)=O)CC3)n21 (stereo not shown) , report its pIC50.
7.38

Using the record for CN1Cc2c(-c3cccc4nc(-c5cnn(C)c5)c(C(F)F)cc34)nc(C3CCOCC3)n2C(F)C1=O (stereo not shown) , report its pIC50.
7.37

Using the record for CC1C(=O)N(C)Cc2c(-c3cccc4cc(-c5nsc(=O)[nH]5)ncc34)nc(C3CC3)n21 (stereo not shown) , report its pIC50.
8.70

Using the record for CC1C(=O)N(C)Cc2c(-c3ccc4ccncc4c3)nc(C3CC3)n21 (stereo not shown) , report its pIC50.
6.80

====

Target: GST-CBP(1081-1197) bromodomain (Homo sapiens (Human), UniProt Q92793)
Experiment: CBP AlphaScreen Assay
Conditions: binding to biotin-H4(1-21) Ac-K5/8/12/16
value.kind: pIC50
Bear in mind: pIC50 is minus log10 of a mol/L concentration; give just that figure.

Using the record for Cc1ncc(-c2cc3ccc(F)c(-c4nc(C5CCOCC5)n5c4CN(C)C(=O)C5C)c3cn2)s1 (single isomer, unassigned) [Example 37b] , report its pIC50.
6.19

Using the record for CC1C(=O)N(C)Cc2c(-c3cccc4nc(-c5noc(=O)[nH]5)c(C(F)F)cc34)nc(C3CC3)n21 (single isomer, unassigned) [Example 45a] , report its pIC50.
9.00

Using the record for CC1C(=O)N(C)Cc2c(-c3cccc4nc(-c5cnn(C)c5)c(C(F)F)cc34)nc(C3CN(CC(F)F)C3)n21 (stereo not shown) [Example 22] , report its pIC50.
7.96

Using the record for Cc1cn(-c2cc3cccc(-c4nc(C5CC5)n5c4CN(C)C(=O)C5C)c3cn2)cn1 (stereo not shown) [Example 70] , report its pIC50.
8.70

Using the record for CC1C(=O)N(C)Cc2c(-c3cccc4nc(-c5cnn(C)c5)c(C(F)F)cc34)nc(C3CCN(CC(F)(F)F)CC3)n21 (stereo not shown) [Example 77] , report its pIC50.
7.47

Using the record for CC1C(=O)N(C)Cc2c(-c3cccc4cc(-c5ncco5)ncc34)nc(C3CC3)n21 (stereo not shown) [Example 66] , report its pIC50.
7.96

Using the record for CC1C(=O)N(C)Cc2c(-c3cccc4cc(-c5noc(=O)[nH]5)ncc34)nc(C3CC3)n21 (single isomer, unassigned) [Example 44a] , report its pIC50.
7.17

====

Target: BRD4(49-170) bromodomain (Homo sapiens (Human))
Test: BRD4 AlphaScreen Assay
Conditions: binding to biotin-H4(1-21) Ac-K5/8/12/16
value.kind: IC50
Provide a numeric answer, followed by its unit.

Using the record for CC1C(=O)N(C)Cc2c(-c3cccc4cc(-c5noc(=O)[nH]5)ncc34)nc(C3CC3)n21 (single isomer, unassigned) [Example 44b] , report its IC50.
1460 nM

Using the record for Cc1cn(-c2cc3ccc(F)c(-c4nc(C5CCOCC5)n5c4CN(C)C(=O)C5C)c3cn2)cn1 (single isomer, unassigned) [Example 33b] , report its IC50.
2120 nM

Using the record for CC1C(=O)N(C)Cc2c(-c3cccc4nc(-c5cnn(C)c5)c(C(F)F)cc34)nc(C3CN(CCF)C3)n21 (stereo not drawn) [Example 25] , report its IC50.
11600 nM

====

Would you kindly list IC50 for each of these molecules?
Target: GST-CBP(1081-1197) bromodomain (Homo sapiens (Human))
Assay: CBP AlphaScreen Assay
Conditions: binding to biotin-H4(1-21) Ac-K5/8/12/16
Provide a numeric answer, followed by its unit.

Identify the measured IC50 of C[C@H]1C(=O)N(C)Cc2c(-c3cccc4nc(-c5cnn(C)c5)c(C(F)F)cc34)nc(C3CC3)n21 [Example 110a] for GST-CBP(1081-1197) bromodomain (Homo sapiens (Human)).
453 nM

Identify the measured IC50 of Cn1cc(-c2cc3cccc(-c4nc(C5CC5)n5c4CN(CCO)C(=O)C5)c3cn2)cn1 for GST-CBP(1081-1197) bromodomain (Homo sapiens (Human)).
2250 nM

Identify the measured IC50 of Cc1ncn(-c2nc3cccc(-c4nc(C5CC5)n5c4CN(C)C(=O)C5C)c3cc2C(F)F)n1 (stereo not shown) for GST-CBP(1081-1197) bromodomain (Homo sapiens (Human)).
3 nM

Identify the measured IC50 of CCN1Cc2c(N3CCCc4cc(-c5cnn(C)c5)c(C(F)F)cc43)nc(C3CC3)n2CC1=O [Example 4] for GST-CBP(1081-1197) bromodomain (Homo sapiens (Human)).
6 nM

Identify the measured IC50 of Cc1cn(-c2nc3cccc(-c4nc(C5CC5)n5c4CN(C)C(=O)C5C)c3cc2C(F)F)cn1 (stereo not shown) for GST-CBP(1081-1197) bromodomain (Homo sapiens (Human)).
4 nM

Identify the measured IC50 of CN1Cc2c(-c3cccc4nc(-c5cnn(C)c5)c(C#N)cc34)nc(C3CCOCC3)n2CC1=O for GST-CBP(1081-1197) bromodomain (Homo sapiens (Human)).
63 nM

Identify the measured IC50 of Cc1cn(-c2cc3ccc(F)c(-c4nc(C5CCOCC5)n5c4CN(C)C(=O)C5C)c3cn2)cn1 (single isomer, unassigned) [Example 33b] for GST-CBP(1081-1197) bromodomain (Homo sapiens (Human)).
6 nM

====

Target: BRD4(49-170) bromodomain (Homo sapiens (Human))
Experiment: BRD4 AlphaScreen Assay
Conditions: binding to biotin-H4(1-21) Ac-K5/8/12/16
Would you kindly list pIC50 for each of these molecules?
Bear in mind: pIC50 is minus log10 of a mol/L concentration; give just that figure.

Using the record for Cc1cnn(-c2cc3cccc(-c4nc(C5CC5)n5c4CN(C)C(=O)C5C)c3cn2)c1 (centres unmarked) , report its pIC50.
6.36

Using the record for CC1C(=O)N(C)Cc2c(N3CCCc4cc(-c5cnn(C)c5)c(C(F)F)cc43)nc(C3CC3)n21 (centres unmarked) , report its pIC50.
6.48

Using the record for Cc1cn(-c2cc3cccc(-c4nc(C5CC5)n5c4CN(C)C(=O)C5C)c3cn2)cn1 (centres unmarked) , report its pIC50.
6.18

Using the record for CN1Cc2c(-c3ccc4c(c3)c(-c3cnn(C)c3)nn4C)nc(C3CC3)n2CC1=O , report its pIC50.
5.17

Using the record for C[C@H]1C(=O)N(C)Cc2c(-c3cccc4cc(-c5cnn(C)c5)ncc34)nc(C3CC3)n21 [Example 111a] , report its pIC50.
4.60

Using the record for Cc1nn(C)cc1-c1cc2ccc(F)c(-c3nc(C4CCOCC4)n4c3CN(C)C(=O)C4)c2cn1 , report its pIC50.
4.60

Using the record for CC1C(=O)N(C)Cc2c(-c3c(F)ccc4cc(-c5ccn(C)n5)ncc34)nc(C3CCOCC3)n21 (single isomer, unassigned) [Example 90b] , report its pIC50.
6.06

Using the record for CC1C(=O)N(C)Cc2c(-c3cccc4nc(-c5cnn(C)c5)c(C(F)F)cc34)nc(C3CCS(=O)(=O)CC3)n21 (single isomer, unassigned) [Example 29b] , report its pIC50.
6.23

Using the record for Cc1ccn(-c2cc3cccc(-c4nc(C5CC5)n5c4CN(C)C(=O)C5C)c3cn2)n1 (centres unmarked) , report its pIC50.
6.39

Using the record for Cc1nn(C)cc1-c1cc2ccc(F)c(-c3nc(C4CCOCC4)n4c3CN(C)C(=O)C4C)c2cn1 (single isomer, unassigned) [Example 91b] , report its pIC50.
6.54

Using the record for CC1C(=O)N(C)Cc2c(-c3cccc4nc(-c5cnn(C)c5)c(C(F)F)cc34)nc(C3CN(CC(F)F)C3)n21 (centres unmarked) , report its pIC50.
5.36

Using the record for CC1C(=O)N(C)Cc2c(-c3cccc4nc(C5=CCOCC5)c(C(F)F)cc34)nc(C3CC3)n21 (centres unmarked) , report its pIC50.
6.44

Using the record for CC1C(=O)N(C)Cc2c(-c3cccc4nc(-c5cnn(C)c5)c(C(F)F)cc34)nc(C3CN(CCO)C3)n21 (centres unmarked) , report its pIC50.
5.03

Using the record for CC1C(=O)N(C)Cc2c(-c3cccc4cc(-c5cn(C)cn5)ncc34)nc(C3CC3)n21 (centres unmarked) , report its pIC50.
6.42

Data provenance: patent US10899769B2
